Source listed as patent US11261211B2.

- assayed_system: α1β2γ2 GABAA receptor (Homo sapiens (Human), UniProt P14867+P47870)
- measurement_notes: Patch clamp electrophysiology of recombinant α1β2γ2 GABAA receptors in LTK cells
- Format: cell-based
- condition: LTK, 10 μM compound, Qpatch, Ltk cells, GABA EC20 2 μM; read-out: α1β2γ2 GABA Qpatch in Ltk (Efficacy at 10 μm)
activity at 10 µM values by entry

Sample records with activity at 10 µM:
- structure_as_smiles: "Cc1nn(CC(=O)[C@H]2CC[C@H]3[C@@H]4CC[C@@H]5C[C@](C)(O)CC[C@@H]5[C@H]4CC[C@]23C)c2ccccc12"
  activity at 10 µM: "> 500%"
- structure_as_smiles: "CC[C@@]1(O)CC[C@H]2[C@@H](CC[C@@H]3[C@@H]2CC[C@]2(C)[C@@H](C(=O)Cn4nc5ccc(F)cc5n4)CC[C@@H]32)C1"
  activity at 10 µM: "10 to 100%"
- structure_as_smiles: "COC[C@@]1(O)CC[C@H]2[C@H](CC[C@@H]3[C@@H]2CC[C@]2(C)[C@@H](C(=O)Cn4cc5ccncc5n4)CC[C@@H]32)C1"
  activity at 10 µM: "> 500%"
- structure_as_smiles: "COc1ccc2c(c1)nnn2CC(=O)[C@H]1CC[C@H]2[C@@H]3CC[C@H]4C[C@@](O)(CF)CC[C@@H]4[C@H]3CC[C@]12C"
  activity at 10 µM: "10 to 100%"
- structure_as_smiles: "COC[C@@]1(O)CC[C@H]2[C@H](CC[C@@H]3[C@@H]2CC[C@]2(C)[C@@H](C(=O)Cn4nnc5ccncc54)CC[C@@H]32)C1"
  activity at 10 µM: "100 to 500%"

Now look at this one.
QUERY: Record request: activity at 10 µM value, item "COC[C@@]1(O)CC[C@H]2[C@@H](CC[C@@H]3[C@@H]2CC[C@]2(C)[C@@H](C(=O)Cn4nc5ccc(F)cc5n4)CC[C@@H]32)C1"
RESULT: 10 to 100%
